inhibition values for the compounds below.
run-description: RAM pathway blockade in budding yeast – dse1pr::URA3 reporter, 5-FOA selection, pilot screen (AID 869);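 note: 0% = DMSO wells with no growth and 100% = 10 µM 1-NA-PP1 with full growth; RAM network block rescues cells from 5-FOA so hits raise OD615 growth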
reported-conditions: S. cerevisiae dse1pr::URA3 5-FOA growth, OD615, 2 d; at 10 µM; active compounds read high; strain carries analog-sensitive mutant Cbk1 kinase
Field format: number, assumed %, no unit text.

>>> numeric_value("CCOC(=O)N1CCN(C(=O)c2ccc(CS(=O)(=O)c3c(Cl)cccc3Cl)o2)CC1")
0.365

What the record says about "COc1ccccc1CNC(=O)c1cnc2sccn2c1=O" : inhibition is 2.37

Reported inhibition of CC1=C(C(=O)OC(C)C)C(c2cccc(F)c2)n2ncnc2N1 (stereo not given) : 1.74

inhibition reading for "COc1ccc(-n2c(Cc3cccn3C)nnc2SCC(=O)Nc2ccc3c(c2)OCCO3)cc1" : 1.61

Consider "Cc1ccc(OC(=O)CCC(=O)Nc2ccc(S(=O)(=O)Nc3cc(C)on3)cc2)cc1" . Its measured inhibition is 0.875

FYI, the data here is from PubChem BioAssay.
